Items are presented alongside their recorded fraction of imaged embryos annotated as normal kidney.
tested on: Danio rerio Tg(wt1b:EGFP) embryo, pronephros; assay: fraction of imaged embryos annotated as normal kidney; higher = less nephrotoxic; extreme values may be limits of the assay; conditions: 25 µM; exposure: 24-48 hpf
Structures can show the parent of a compound that is named as a salt.
API note: the answer field is a bare number with no unit suffix.

1) CN1CCN2c3ccccc3Cc3ccccc3C2C1 (configuration not stated) [Mianserine hydrochloride] : 0.833
2) CC(C)NC(=N)NC(=N)Nc1ccc(Cl)cc1 [Proguanil hydrochloride] : 0.917
3) Clc1ccc(CO/N=C(\Cn2ccnc2)c2ccc(Cl)cc2Cl)c(Cl)c1 [Oxiconazole Nitrate] : 0
4) CC(C)NCC(O)c1ccc(NS(C)(=O)=O)cc1 (configuration not stated) [Sotalol hydrochloride] : 0.8
5) c1ccc2[nH]c(-c3cscn3)nc2c1 : 0.667
6) CCOc1nc2cccc(C(=O)O)c2n1Cc1ccc(-c2ccccc2-c2nnn[nH]2)cc1 : 0.917
7) CCCCc1oc2ccccc2c1C(=O)c1cc(I)c(OCCN(CC)CC)c(I)c1 [Amiodarone hydrochloride] : 0.4
8) O=C(OCC(O)CO)c1ccccc1Nc1ccnc2cc(Cl)ccc12 (configuration not stated) [Glafenine hydrochloride] : 0.833
9) Cc1onc(-c2ccccc2)c1C(=O)N[C@@H]1C(=O)N2[C@@H]1SC(C)(C)[C@@H]2C(=O)O [Oxacillin sodium] : 0.833
10) CCN(Cc1ccncc1)C(=O)C(CO)c1ccccc1 (configuration not stated) [Tropicamide] : 0.75

Give the measured fraction of imaged embryos annotated as normal kidney of CNCCc1ccccn1 [Betahistine mesylate] .
0.833

Give the measured fraction of imaged embryos annotated as normal kidney of CN(C)CCn1nnnc1SCC1=C(C(=O)O)N2C(=O)[C@@H](NC(=O)Cc3csc(N)n3)[C@H]2SC1 [Cefotiam hydrochloride] .
0.917

Give the measured fraction of imaged embryos annotated as normal kidney of CCCCCN(C)CCC(O)(P(=O)(O)O)P(=O)(O)O [Ibandronate sodium] .
0.833

Give the measured fraction of imaged embryos annotated as normal kidney of C#C[C@]1(O)CC[C@H]2[C@@H]3CCC4=CC(=O)CC[C@@H]4[C@H]3CC[C@@]21CC [Norgestrel-(-)-D] .
1

Give the measured fraction of imaged embryos annotated as normal kidney of Cc1cc(C)nc(NS(=O)(=O)c2ccc(N)cc2)n1 [Sulfamethazine sodium salt] .
0.917

Give the measured fraction of imaged embryos annotated as normal kidney of CCCN(CCC)C(=O)C(CCC(=O)O)NC(=O)c1ccccc1 (configuration not stated) [Proglumide] .
0.917

Give the measured fraction of imaged embryos annotated as normal kidney of COCCOC(=O)C1=C(C)NC(C)=C(C(=O)OC/C=C/c2ccccc2)C1c1cccc([N+](=O)[O-])c1 (configuration not stated) .
0

* * *

tested on: Danio rerio Tg(wt1b:EGFP) embryo, pronephros; test: glomerular width (mean of left and right), fold change vs DMSO control; higher = wider glomerulus; details: 25 µM; exposure: 24-48 hpf
Hi, to clarify the labels: true (1) covers glomerular width from 1 upward, false (0) covers anything below 1.

Observe how each entry below is paired with its result.
1) CC1(C)O[C@@H]2C[C@H]3[C@@H]4CCC5=CC(=O)CC[C@]5(C)[C@@]4(F)[C@@H](O)C[C@]3(C)[C@]2(C(=O)CCl)O1 [Halcinonide] : true (1)
2) Nc1cc(C(Cl)=C(Cl)Cl)c(S(N)(=O)=O)cc1S(N)(=O)=O [Clorsulon] : false (0)
3) Clc1ccccc1C(c1ccccc1)(c1ccccc1)n1ccnc1 [Clotrimazole] : false (0)
4) O=c1[nH]cnc2c1ncn2[C@H]1CC[C@@H](CO)O1 [Didanosine] : true (1)
5) CC1(C)S[C@@H]2[C@H](NC(=O)[C@H](N)c3ccccc3)C(=O)N2[C@H]1C(=O)O [Ampicillin trihydrate] : true (1)

Next:
Does glomerular width meet or surpass 1 for CCCCC1C(=O)N(c2ccccc2)N(c2ccccc2)C1=O [Phenylbutazone] ?
false (0)

* * *

Items are presented alongside their recorded pronephric angle neck segment.
system: Danio rerio Tg(wt1b:EGFP) embryo, pronephros; experiment: pronephric angle neck segment to proximal convoluted tubule (mean of left and right), fold change vs DMSO control; higher = larger pronephric angle; settings: 25 µM; exposure: 24-48 hpf
Counter-ions that a name gives are not always drawn.
API note: the answer field is a bare number with no unit suffix.

1. CCSc1ccc2c(c1)N(CCCN1CCN(C)CC1)c1ccccc1S2 [Thiethylperazine dimalate] : 0.977
2. CN(C)CCC=C1c2ccccc2C=Cc2ccccc21 [Cyclobenzaprine hydrochloride] : 1.03
3. Cc1c(NC(C)C)c(=O)n(-c2ccccc2)n1C [Isopyrin hydrochloride] : 0.974
4. CC(C)NCC(O)COc1cccc2[nH]ccc12 (stereo not drawn) : 0.984
5. CCCCC(C)(O)C/C=C/[C@H]1[C@H](O)CC(=O)[C@@H]1CCCCCCC(=O)OC (mixture of isomers) : 0.985

Give the measured pronephric angle neck segment of O=C1NCCN1c1ncc([N+](=O)[O-])s1 .
1.14

Give the measured pronephric angle neck segment of COc1cc(C(=O)NS(=O)(=O)c2ccccc2C)ccc1Cc1cn(C)c2ccc(NC(=O)OC3CCCC3)cc12 .
1.09

Give the measured pronephric angle neck segment of Cc1nnc(SCC2=C(C(=O)O)N3C(=O)[C@@H](NC(=O)Cn4cnnn4)[C@H]3SC2)s1 [Cefazolin sodium salt] .
1.03

* * *

test system: Danio rerio Tg(wt1b:EGFP) embryo, pronephros; assay: pronephric angle neck segment to proximal convoluted tubule (mean of left and right), fold change vs DMSO control; higher = larger pronephric angle; details: 25 µM; exposure: 24-48 hpf
Where a name gives a salt, the structure may show the parent alone.
MEASURE_NAME: pronephric angle neck segment

These solved cases illustrate the format of a correct answer.
1. Cc1c(O)cccc1C(=O)N[C@@H](CSc1ccccc1)[C@H](O)CN1C[C@H]2CCCC[C@H]2C[C@H]1C(=O)NC(C)(C)C [Nelfinavir mesylate] : 0.954
2. CC1(C)S[C@@H]2[C@H](NC(=O)Cc3ccccc3)C(=O)N2[C@H]1C(=O)O [Benzathine benzylpenicillin] : 0.951
3. O=C(Nc1cccc2c(=O)cc(-c3nnn[nH]3)oc12)c1ccc(OCCCCc2ccccc2)cc1 : 1.01
4. Nc1nc(=O)n([C@@H]2CS[C@H](CO)O2)cc1F [(-)-Emtricitabine] : 0.999
5. CN(C(=O)C(Cl)Cl)c1ccc(OC(=O)c2ccco2)cc1 [Diloxanide furoate] : 1.25

Give the measured pronephric angle neck segment of COc1nc(C)nc(Cl)c1NC1=NCCN1 .
0.96

Give the measured pronephric angle neck segment of CN(C)CCCSC(=N)N [Dimaprit dihydrochloride] .
1

Give the measured pronephric angle neck segment of N#Cc1ccc(C(c2ccc(C#N)cc2)n2cncn2)cc1 .
0.938

Give the measured pronephric angle neck segment of CC(=O)Oc1ccccc1C(=O)O .
1.01

* * *

system: Danio rerio Tg(wt1b:EGFP) embryo, pronephros; experiment: pronephric angle neck segment to proximal convoluted tubule (mean of left and right), fold change vs DMSO control; higher = larger pronephric angle; details: 25 µM; exposure: 24-48 hpf
Counter-ions that a name gives are not always drawn.
Items are presented alongside their recorded pronephric angle neck segment.
API note: the answer field is a bare number with no unit suffix.

1) CCOC(=O)Nc1ccc2c(c1)N(C(=O)CCN1CCOCC1)c1ccccc1S2 [Moricizine hydrochloride] : 0.993
2) Brc1c(NC2=NCCN2)ccc2nccnc12 [Brimonidine L-Tartrate] : 0.993
3) COC(=O)CCc1ccc(OCC(O)CNC(C)C)cc1 (centres undefined) [Esmolol hydrochloride] : 0.986

Give the measured pronephric angle neck segment of CC(C[N+](C)(C)C)OC(N)=O (centres undefined) [Bethanechol chloride] .
0.998

Give the measured pronephric angle neck segment of O=C(c1ccccc1)c1ccc2n1CCC2C(=O)O (centres undefined) .
1.04

Give the measured pronephric angle neck segment of CC[N+](CC)(CC(=O)Nc1c(C)cccc1C)Cc1ccccc1 [Denatonium benzoate] .
0.991

Give the measured pronephric angle neck segment of CC(CCc1ccccc1)NCC(O)c1ccc(O)c(C(N)=O)c1 (centres undefined) [Labetalol hydrochloride] .
1.07

Give the measured pronephric angle neck segment of CCN(CCO)CCCC(C)Nc1ccnc2cc(Cl)ccc12 (centres undefined) [Hydroxychloroquine sulfate] .
0.935

Give the measured pronephric angle neck segment of CC[C@@]1(O)C(=O)OCc2c1cc1n(c2=O)Cc2cc3c(CN(C)C)c(O)ccc3nc2-1 .
1.27

* * *

test system: Danio rerio Tg(wt1b:EGFP) embryo, pronephros; assay: fraction of imaged embryos annotated as normal kidney; higher = less nephrotoxic; extreme values may be limits of the assay; conditions: 25 µM; exposure: 24-48 hpf
Items are presented alongside their recorded fraction of imaged embryos annotated as normal kidney.
API note: the answer field is a bare number with no unit suffix.

These solved cases illustrate the format of a correct answer.
1) O=C(OCCOCCO)c1ccccc1Nc1cccc(C(F)(F)F)c1 [Etofenamate] : 0
2) COc1c(N2C[C@@H]3CCCN[C@@H]3C2)c(F)cc2c(=O)c(C(=O)O)cn(C3CC3)c12 [Moxifloxacin] : 0.909
3) CC[N+](C)(CC)CCC[n+]1c(-c2ccccc2)c2cc(N)ccc2c2ccc(N)cc21 [Propidium iodide] : 0.727

Give the measured fraction of imaged embryos annotated as normal kidney of Cc1c(NC(=O)c2cccnc2)c(=O)n(-c2ccccc2)n1C [Nifenazone] .
0.833

Where do these numbers come from? They come from the supplement of paper PMC7366291.
